- System Name: Protein cereblon/Androgen receptor (Homo sapiens, UniProt P10275+Q96SW2)
- Sequence (P10275 whole entry, looked up): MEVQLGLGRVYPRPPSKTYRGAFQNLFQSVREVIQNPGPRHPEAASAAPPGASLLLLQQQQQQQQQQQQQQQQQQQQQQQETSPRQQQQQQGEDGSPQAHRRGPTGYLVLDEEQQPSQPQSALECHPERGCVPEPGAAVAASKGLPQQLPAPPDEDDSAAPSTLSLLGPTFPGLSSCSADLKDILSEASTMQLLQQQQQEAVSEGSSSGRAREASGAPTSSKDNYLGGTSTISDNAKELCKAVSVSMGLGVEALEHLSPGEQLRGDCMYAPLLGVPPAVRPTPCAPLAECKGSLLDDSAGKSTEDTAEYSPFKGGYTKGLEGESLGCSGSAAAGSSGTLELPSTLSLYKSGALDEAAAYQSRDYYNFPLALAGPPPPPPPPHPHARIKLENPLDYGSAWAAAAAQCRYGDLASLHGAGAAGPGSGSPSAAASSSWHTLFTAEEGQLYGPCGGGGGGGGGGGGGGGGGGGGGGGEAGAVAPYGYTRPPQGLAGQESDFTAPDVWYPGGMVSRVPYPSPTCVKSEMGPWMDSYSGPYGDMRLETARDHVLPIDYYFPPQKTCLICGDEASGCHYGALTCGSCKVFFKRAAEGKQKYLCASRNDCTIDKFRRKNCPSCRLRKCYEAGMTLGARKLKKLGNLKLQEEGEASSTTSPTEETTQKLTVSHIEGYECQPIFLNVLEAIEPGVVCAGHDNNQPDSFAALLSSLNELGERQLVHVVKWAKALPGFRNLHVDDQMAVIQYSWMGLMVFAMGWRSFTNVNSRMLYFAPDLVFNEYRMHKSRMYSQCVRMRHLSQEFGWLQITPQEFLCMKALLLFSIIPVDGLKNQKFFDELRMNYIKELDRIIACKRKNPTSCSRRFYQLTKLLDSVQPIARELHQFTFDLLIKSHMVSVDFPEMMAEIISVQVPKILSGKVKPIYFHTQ
- Sequence (Q96SW2 whole entry, looked up): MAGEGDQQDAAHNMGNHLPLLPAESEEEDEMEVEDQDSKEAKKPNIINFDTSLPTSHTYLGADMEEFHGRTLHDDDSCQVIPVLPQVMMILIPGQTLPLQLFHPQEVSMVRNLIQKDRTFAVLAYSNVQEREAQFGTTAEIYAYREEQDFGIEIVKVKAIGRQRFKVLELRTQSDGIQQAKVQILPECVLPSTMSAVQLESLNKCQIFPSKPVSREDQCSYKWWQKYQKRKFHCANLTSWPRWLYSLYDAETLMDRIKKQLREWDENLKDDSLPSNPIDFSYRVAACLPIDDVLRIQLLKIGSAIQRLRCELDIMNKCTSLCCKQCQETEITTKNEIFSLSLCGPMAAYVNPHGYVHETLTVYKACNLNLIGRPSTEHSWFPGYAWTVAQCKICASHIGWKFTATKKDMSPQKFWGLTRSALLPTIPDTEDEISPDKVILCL
- Method Summary: PROTAC activity at CRBN/AR in human VCaP cells assessed as induction of AR degradation at 0.01 uM incubated for 24 hrs by Western blot analysis relative to control
- Format: cell-based
Observation Type: Activity (%)

molecule="CC(C)(c1ccc(OCC2CCOC2)cc1)c1cc(Cl)c(OCC2CCN(C(=O)CCCCCNc3ccc4c(c3)C(=O)N(C3CCC(=O)NC3=O)C4=O)CC2)c(C#N)c1 (stereo unspecified)" readout_units=% readout_value=83.9
molecule=COc1ccc(C(C)(C)c2cc(Cl)c(OCC3CCN(C(=O)CCCCCNc4ccc(C(=O)N[C@H]5CCC(=O)NC5=O)c(F)c4)CC3)c(C#N)c2)cc1 readout_units=% readout_value=15.7

(a) CC1(COc2ccc(C(C)(C)c3cc(Cl)c(OCC4CCN(C(=O)CCCCCNc5ccc6c(c5)C(=O)N(C5CCC(=O)NC5=O)C6=O)CC4)c(C#N)c3)cc2)COC1 (stereo unspecified)
(b) CC(C)(c1ccc(OCC2CCN(C(=O)CCCCCNc3ccc4c(c3)C(=O)N(C3CCC(=O)NC3=O)C4=O)CC2)cc1)c1ccc(OC[C@H](O)CCl)cc1 (stereo partly specified)
QUERY: Consider entries a and b . Which has the numerically lower Activity? When you have decided, please share the label of that item.
RESULT: b
